- Measurement Target: T1, MBP-RAMP1 ECD-(GS)5-CLR ECD-H6 fusion protein (human, UniProt O60894 24-111; Q16602 29-144)
- T1 construct: range 24-111;range 29-144; Tethered ECD fusion made in E. coli; used in the FP assay at 15 nM; also called MBP-hRAMP1.24-111-(Gly-Ser)5-hCLR.29-144-H6
- T1 sequence (O60894 other isoform, or with tags, fused parts or gaps limits assumed, form in doubt): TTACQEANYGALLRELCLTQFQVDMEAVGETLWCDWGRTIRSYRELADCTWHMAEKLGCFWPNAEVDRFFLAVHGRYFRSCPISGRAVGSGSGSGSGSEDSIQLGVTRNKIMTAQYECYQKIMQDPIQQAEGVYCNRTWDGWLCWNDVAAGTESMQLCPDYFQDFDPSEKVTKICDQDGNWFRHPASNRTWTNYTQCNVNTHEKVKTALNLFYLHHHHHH
- Assay Procedure: FP competition vs FITC-AM W/W probe, purified ECD fusion
Where no end group is shown, it is not given here.
Readout Label: pKI

INSERT INTO results (binder, readout_label, relational_operator, number) VALUES
  ('FVPTDVGPFSF-NH2 [CGRP(27-37)NH2 [N31D, S34P, K35F, A36S]]', 'pKI', '=', 8.53),
  ('DKDNVAPRWLMSPWGF-NH2 [AM(37-52)NH2 [S45W, K46L, I47M, Q50W, Y52F]]', 'pKI', '=', 9.11),
  ('FVPTDTGPWGF-NH2 [CGRP(27-37)NH2 [N31D, V32T, S34P, K35W, A36G]]', 'pKI', '=', 8.16),
  ('DKDNVAPRTLISPWGY-NH2 [AM(37-52)NH2[S45T, K46L, Q50W]]', 'pKI', '=', 7.18),
  ('DKDNVAPRSKISPWGY-NH2 [AM(37-52)NH2 [Q50W]]', 'pKI', '=', 6.3),
  ('DKDNVAPRTWISPWGY-NH2 [AM(37-52)NH2[S45T, K46W, Q50W]]', 'pKI', '=', 6.36),
  ('DKDNVAPRSLISPWGF-NH2 [AM(37-52)NH2 [K46L, Q50W, Y52F]]', 'pKI', '=', 7.5),
  ('FVPTDVGPWSY-NH2 [CGRP(27-37)NH2 [N31D, S34P, K35W, A36S, F37Y]]', 'pKI', '=', 8.88),
  ('DKDNVAPRSKISPFGY-NH2 [AM(37-52)NH2 [Q50F]]', 'pKI', '=', 4.98),
  ('FVPTDVGPWSF-NH2 [CGRP(27-37)NH2 [N31D, S34P, K35W, A36S]]', 'pKI', '=', 8.88),
  ('DKFNVAPRSLISPWGF-NH2 [AM(37-52)NH2 [D39F, K46L, Q50W, Y52F]]', 'pKI', '=', 7.61),
  ('FVPTDVGPWAF-NH2 [CGRP(27-37)NH2 [N31D, S34P, K35W]]', 'pKI', '=', 8.09),
  ('FVPTDTGPWSF-NH2 [CGRP(27-37)NH2 [N31D, V32T, S34P, K35W, A36S]]', 'pKI', '>', 9),
  ('DKDNVAPRWMISPWGF-NH2 [AM(37-52)NH2 [S45W, K46M, Q50W, Y52F]]', 'pKI', '=', 8.1),
  ('DKDNVAPRWKISPWGY-NH2 (also called S45W/Q50W double mutant) [AM(37-52)NH2 [S45W, Q50W]]', 'pKI', '=', 7.35),
  ('DKFNVAPRSLISPWGY-NH2 [AM(37-52)NH2 [D39F, K46L, Q50W]]', 'pKI', '=', 7.1),
  ('DKDNVAPRSLISPWGY-NH2 [AM(37-52)NH2 [K46L, Q50W]]', 'pKI', '=', 7.15),
  ('DKDNVAPRWLISPWGF-NH2 [AM(37-52)NH2 [S45W, K46L, Q50W, Y52F]]', 'pKI', '=', 8.72),
  ('FVPTDTGPWGY-NH2 [CGRP(27-37)NH2 [N31D, V32T, S34P, K35W, A36G, F37Y]]', 'pKI', '=', 7.75),
  ('DKDNVAPRWWISPWGF-NH2 [AM(37-52)NH2 [S45W, K46W, Q50W, Y52F]]', 'pKI', '=', 7.62);

Values from patent US20180141989A1
